target: CDK13 (Homo sapiens, UniProt Q14004); assay: Western blot degradation of CDK13 (Example 3); format: cell-based; set-up: degradation of CDK12/13 protein in leukemia cells KASUMI-1, MV4-11, and Jurkat; endogenous in cells; details: DC50 classes; cell line not given; read-out: CDK13 degradation Activity
Sequence (Q14004 whole entry): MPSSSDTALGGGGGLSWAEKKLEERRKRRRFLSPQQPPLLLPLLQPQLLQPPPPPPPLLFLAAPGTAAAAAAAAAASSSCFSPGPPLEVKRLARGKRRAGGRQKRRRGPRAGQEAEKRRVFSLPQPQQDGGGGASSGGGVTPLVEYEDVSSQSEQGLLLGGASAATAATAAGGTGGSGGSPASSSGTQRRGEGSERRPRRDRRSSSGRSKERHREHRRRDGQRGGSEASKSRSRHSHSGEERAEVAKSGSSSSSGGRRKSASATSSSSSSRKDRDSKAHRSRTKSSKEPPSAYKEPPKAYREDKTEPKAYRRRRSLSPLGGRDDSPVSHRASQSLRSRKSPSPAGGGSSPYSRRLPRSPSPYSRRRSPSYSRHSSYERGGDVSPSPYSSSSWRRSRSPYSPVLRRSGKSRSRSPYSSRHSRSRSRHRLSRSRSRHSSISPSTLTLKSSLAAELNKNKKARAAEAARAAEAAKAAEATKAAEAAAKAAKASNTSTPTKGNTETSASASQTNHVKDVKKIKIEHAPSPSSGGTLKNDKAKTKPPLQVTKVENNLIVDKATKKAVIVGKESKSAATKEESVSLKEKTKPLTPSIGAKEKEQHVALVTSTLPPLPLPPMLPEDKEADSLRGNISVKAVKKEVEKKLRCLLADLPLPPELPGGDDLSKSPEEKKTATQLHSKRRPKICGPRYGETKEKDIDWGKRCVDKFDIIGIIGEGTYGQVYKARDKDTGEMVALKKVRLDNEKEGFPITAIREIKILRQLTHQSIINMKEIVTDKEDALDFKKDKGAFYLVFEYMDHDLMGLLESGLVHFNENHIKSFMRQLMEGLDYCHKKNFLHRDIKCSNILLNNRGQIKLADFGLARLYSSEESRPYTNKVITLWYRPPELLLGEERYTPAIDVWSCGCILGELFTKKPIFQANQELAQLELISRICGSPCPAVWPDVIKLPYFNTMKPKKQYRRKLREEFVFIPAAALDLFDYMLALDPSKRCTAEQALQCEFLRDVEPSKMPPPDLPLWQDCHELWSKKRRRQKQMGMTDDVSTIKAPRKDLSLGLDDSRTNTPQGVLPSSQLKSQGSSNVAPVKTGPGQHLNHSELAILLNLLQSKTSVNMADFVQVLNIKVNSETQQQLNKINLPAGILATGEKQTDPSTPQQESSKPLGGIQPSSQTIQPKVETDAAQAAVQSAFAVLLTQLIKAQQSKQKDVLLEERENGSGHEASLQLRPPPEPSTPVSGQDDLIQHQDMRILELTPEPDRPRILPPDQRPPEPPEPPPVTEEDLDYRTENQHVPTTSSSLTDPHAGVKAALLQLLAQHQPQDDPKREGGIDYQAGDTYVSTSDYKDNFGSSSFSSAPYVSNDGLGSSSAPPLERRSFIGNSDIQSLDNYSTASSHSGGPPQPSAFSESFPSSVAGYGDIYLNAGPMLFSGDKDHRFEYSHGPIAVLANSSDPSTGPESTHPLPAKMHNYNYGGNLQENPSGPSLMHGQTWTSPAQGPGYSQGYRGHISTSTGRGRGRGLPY
Sequence (O75909 whole entry partner): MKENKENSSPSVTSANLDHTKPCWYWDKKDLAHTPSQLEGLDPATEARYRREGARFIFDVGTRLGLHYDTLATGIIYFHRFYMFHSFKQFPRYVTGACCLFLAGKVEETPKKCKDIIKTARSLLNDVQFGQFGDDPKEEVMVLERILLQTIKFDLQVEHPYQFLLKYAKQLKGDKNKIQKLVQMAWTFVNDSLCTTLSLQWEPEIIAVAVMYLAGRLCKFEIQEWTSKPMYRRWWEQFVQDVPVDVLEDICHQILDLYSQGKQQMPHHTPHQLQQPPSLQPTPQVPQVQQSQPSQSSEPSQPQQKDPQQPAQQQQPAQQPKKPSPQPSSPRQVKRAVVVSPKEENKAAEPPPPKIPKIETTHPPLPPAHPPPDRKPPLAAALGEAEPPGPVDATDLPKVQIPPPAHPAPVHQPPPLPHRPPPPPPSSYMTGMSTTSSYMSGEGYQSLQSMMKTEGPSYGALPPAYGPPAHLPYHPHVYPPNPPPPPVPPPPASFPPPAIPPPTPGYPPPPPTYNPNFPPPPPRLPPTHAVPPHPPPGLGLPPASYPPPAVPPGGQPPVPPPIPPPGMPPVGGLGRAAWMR
quantity.name: DC50

Answered examples (2):
{"compound": "CC(=O)N(c1ccc(-c2ccc(N3CCC(C(=O)N[C@H](C(=O)N4C[C@H](O)C[C@H]4C(=O)N[C@@H](C)c4ccc(-c5scnc5C)cc4)C(C)(C)C)CC3)nc2)cc1)[C@H]1CC[C@H](Nc2ncc3ccccc3n2)CC1", "tgt": "CDK13 (Homo sapiens, UniProt Q14004)", "DC50": "3 to 10 µM"}
{"compound": "CC(=O)N(c1ccc(-c2cncc(C(=O)N[C@H]3CCC(=O)NC3=O)c2)cc1)[C@H]1CC[C@H](Nc2ncc3ccccc3n2)CC1", "tgt": "CDK13 (Homo sapiens, UniProt Q14004)", "DC50": "3 to 10 µM"}

I have this compound here, CC(=O)N(c1ccc(-c2cnc(O[C@@H]3CCN(c4ccc5c(c4)C(=O)N(C4CCC(=O)NC4=O)C5=O)C3)nc2)cc1)[C@H]1CC[C@H](Nc2ncc3ccccc3n2)CC1 (stereo partly drawn) , and I need its recorded DC50.
0.1 to 0.5 µM
